Origin of values: PubChem BioAssay AID2060493

Tested on: 616215-338-R-J1-PDC tumor spheroids, viability;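 note: spheroids exposed to agents for 7 days before readout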
Assay: Anticancer human tumor 616215-338-R-J1-PDC patient-derived colon adenocarcinoma cell line growth inhibition [GQUAD]
Conditions: curve of first compound; second compound 10 µM; spheroids with HUVEC and MSC
Excerpt: DNA G-quadruplex Stabilizer Agents in Combinations in Complex Spheroids A high-throughput screen of multi-cell type tumor spheroids was designed to identify active combinations of DNA G-quadruplex stabilizer agents and targeted small molecules. […] Compounds. […] If the clinical Cmax for an agent had not been determined, the highest concentration tested was 10 microM. […]
pIC50: −log10 of the molar value.
Measured pIC50 accompanies every entry in the list below.

# compound, measured result
rows = [
    ("O=C(NO)c1cnc(N2CCN(S(=O)(=O)c3ccc4ccccc4c3)CC2)nc1 + Cc1cnc(CNC(=O)c2c(=O)c3ccc(N4CCCN(C)CC4)nc3n3c2sc2ccccc23)cn1", "> 7.50"),
    ("COc1cccc2c1C(=O)c1c(O)c3c(c(O)c1C2=O)CC(O)(C(=O)CO)CC3OC1CC(N)C(O)C(C)O1 (stereo unspecified) + Cc1cnc(CNC(=O)c2c(=O)c3ccc(N4CCCN(C)CC4)nc3n3c2sc2ccccc23)cn1", "> 7.50"),
    ("Cc1cccc(N(C)C(=O)C2C(O)CCN2c2nc(C)cc(C(F)(F)F)c2C#N)c1 (stereo unspecified) + Cc1[nH]c2ccc(F)cc2c1-c1nc2c3cccnc3c3ncccc3c2[nH]1", "< 5.00"),
    ("CC1COCCN1c1cc(C2(S(C)(=N)=O)CC2)nc(-c2ccnc3[nH]ccc23)n1 (stereo unspecified) + Cc1cnc(CNC(=O)c2c(=O)c3ccc(N4CCCN(C)CC4)nc3n3c2sc2ccccc23)cn1", "> 7.50"),
    ("O=C(c1cc(Cc2n[nH]c(=O)c3ccccc23)ccc1F)N1CCN(C(=O)C2CC2)CC1 + Cc1cnc(CNC(=O)c2c(=O)c3ccc(N4CCCN(C)CC4)nc3n3c2sc2ccccc23)cn1", "> 7.50"),
]

Find the recorded pIC50 belonging to C#Cc1c(F)ccc2cc(O)cc(-c3ncc4c(N5CC6CCC(C5)N6)nc(OCC56CCCN5CC(F)C6)nc4c3F)c12 (stereo unspecified) + Cc1cnc(CNC(=O)c2c(=O)c3ccc(N4CCCN(C)CC4)nc3n3c2sc2ccccc23)cn1 and report it.
> 7.50
